# Tested System: His-ZipA^185–328 (E. coli, UniProt P77173 185-328)
# Test: BLI
Parameter Measured: pKd
# pKd: negative log10 of molar concentration; output just the value

I have this binder here, KEPDYLDIPAFLRKQAD (domain or fragment, E. coli, UniProt P0A9A6 367-383, looked up) [MalE-CCTP] , and I need its recorded pKd.
4.51

Field request: pKd | item: DYLDIPAFLRKQAD (peptide, UniProt P0A9A6 370-383, looked up) [CCTP (14 amino acids)]
3.85
